Biological target: T1, human amylin 3(a) receptor (human calcitonin receptor + RAMP-3) (human, UniProt P30988 25-474; O60896 24-148, limits assumed)
T1 construct: whole, on cells; Whole cells in the luciferase assay (Assay II a); also called hAmylin-R; hAmylinR
T1 sequence (looked up) 1: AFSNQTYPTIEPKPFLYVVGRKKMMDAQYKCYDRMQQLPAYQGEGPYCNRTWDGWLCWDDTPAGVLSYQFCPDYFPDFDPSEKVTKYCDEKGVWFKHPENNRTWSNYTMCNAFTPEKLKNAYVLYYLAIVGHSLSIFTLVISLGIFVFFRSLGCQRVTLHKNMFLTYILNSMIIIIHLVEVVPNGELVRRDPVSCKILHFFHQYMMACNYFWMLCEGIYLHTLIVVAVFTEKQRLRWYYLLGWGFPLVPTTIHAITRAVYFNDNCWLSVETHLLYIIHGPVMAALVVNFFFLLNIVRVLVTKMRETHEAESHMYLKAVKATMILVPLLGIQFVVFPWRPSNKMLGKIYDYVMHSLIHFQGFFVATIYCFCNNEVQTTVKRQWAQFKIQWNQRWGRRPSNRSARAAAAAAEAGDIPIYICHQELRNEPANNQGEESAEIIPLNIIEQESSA
T1 sequence (looked up) 2: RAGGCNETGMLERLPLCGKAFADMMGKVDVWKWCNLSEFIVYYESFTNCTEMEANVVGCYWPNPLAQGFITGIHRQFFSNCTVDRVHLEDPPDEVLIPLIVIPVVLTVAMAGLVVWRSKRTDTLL
Assay: SPA competition binding, membranes of BHK cells with human calcitonin receptor + RAMP-3, displacement of 125I-rat amylin (Assay V)
Numbered stars: 1 amine (or outer) side, 2 acyl side, 3 side chain; on linkers, the order of the positions; unused ones are H or OH. Bridge positions count the residues as written; N and C are the ends. * marks the point of attachment. C20 diacid = O=C(O)CCCCCCCCCCCCCCCCCCC(=O)*; γGlu = O=C(O)[C@H](CCC(=O)[*:2])N[*:1]
Measured Endpoint: pIC50
In simple prose, pIC50 is minus the logarithm base ten of a concentration in moles per litre.

# input Given {C20 diacid-γGlu}-KCNTATCATQRLAEFLRHSSPNFGAILPSTNVGSETY-NH2 (disulfide 2-7, also called compound 33) , state its recorded pIC50.
# output 9.04
